Please respond with reported IC50 for every item in the list.
assay: Antiproliferative activity against human SMMC7721 cells after 48 hrs by CCK8 assay; assay type: functional, cell-based; details: SMMC-7721, 48 h
Lab book: enter the figure in µM, no units written.

Input line: Return reported IC50; argument: O=c1c2ccccc2[se]n1-c1nc(SCc2ccc([N+](=O)[O-])cc2)n[nH]1
Output line: 8.91

Input line: Please give the measured IC50 for this molecule: CCCSc1n[nH]c(-n2[se]c3ccccc3c2=O)n1
Output line: 6.02

Input line: Could you tell me which IC50 is on file for CCCCSc1n[nH]c(-n2[se]c3ccccc3c2=O)n1 ?
Output line: 16.8

Input line: Item under review: O=c1c2ccccc2[se]n1-c1nc(SCc2ccc(F)cc2)n[nH]1 . Reported IC50?
Output line: 46.1

Input line: Param item = Cc1cccc(CSc2n[nH]c(-n3[se]c4ccccc4c3=O)n2)c1 ; retrieve measured IC50.
Output line: 9.04

Input line: Find the recorded IC50 belonging to CCSc1n[nH]c(-n2[se]c3ccccc3c2=O)n1 and report it.
Output line: 10

Input line: What does the data say about its IC50? Entry: CCCCCCSc1n[nH]c(-n2[se]c3ccccc3c2=O)n1
Output line: 22.4

Input line: I am curious: what IC50 value has been reported for O=c1c2ccccc2[se]n1-c1nc(SCc2ccc(Cl)cc2)n[nH]1 ?
Output line: 33.9

###

assay: Antiproliferative activity against human SMMC7721 cells after 48 hrs by CCK8 assay; type: functional, cell-based; conditions: SMMC-7721, 48 h
ASSAY METRIC: pIC50
The value called pIC50 is obtained by taking minus log10 of the concentration in mol/L.

Input line: Given the entry O=c1c2ccccc2[se]n1-c1nc(SCc2ccccc2)n[nH]1 , report its measured pIC50.
Output line: 4.49

Input line: Which value of pIC50 has been reported for CC(C)Sc1n[nH]c(-n2[se]c3ccccc3c2=O)n1 in the records?
Output line: 5.22

Input line: Name the recorded pIC50 for Cc1ccccc1CSc1n[nH]c(-n2[se]c3ccccc3c2=O)n1 .
Output line: 4.44

Input line: Bench note: what pIC50 did CC(C)CSc1n[nH]c(-n2[se]c3ccccc3c2=O)n1 show?
Output line: 4.46

Input line: What does the record list as pIC50 for CCCCCSc1n[nH]c(-n2[se]c3ccccc3c2=O)n1 ?
Output line: 4.50

Input line: Could you share which pIC50 value was measured for O=c1c2ccccc2[se]n1CCn1[se]c2ccccc2c1=O ?
Output line: 4.97
